Molecular target: T1, cTnI quality control product recombinant protein (human, UniProt P19429 2-210, limits assumed)
T1 construct: treated as the same molecule; also called cTnI antigen; cardiac troponin I
T1 sequence (P19429 2-210 limits assumed): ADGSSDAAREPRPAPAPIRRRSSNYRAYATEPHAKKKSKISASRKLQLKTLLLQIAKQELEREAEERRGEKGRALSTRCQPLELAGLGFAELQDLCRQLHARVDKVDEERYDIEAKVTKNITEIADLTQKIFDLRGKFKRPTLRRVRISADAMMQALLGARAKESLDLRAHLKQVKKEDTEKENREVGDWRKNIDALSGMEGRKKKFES
Test: AMC sensor, antibody immobilised, cTnI in solution
Experimental: Operating process: it is equilibrated in Buffer 1 (PBST) for 60 s, the antibody is immobilized in an antibody solution for 300 s, incubated in Buffer 2 (PBST) for 180 s, bound in antigen solution for 420 s, dissociated in the Buffer 2 for 1200 s, 10 mM of GLY solution with pH 1.69 and Buffer 3 are used for sensor regeneration, and data is output. KD represents an equilibrium dissociation constant, namely the affinity; Kon represents a binding rate; and Kd is represents a dissociation rate.
VALUE TYPE: kon (M⁻¹ s⁻¹)
One number for each entry, in M⁻¹ s⁻¹.

>  <BINDER>
Mutation 1-2 (antibody, V domains shown, Built as m8) VH: EVQLQQSGPELVKPGASVKMSCKASGYTFTIYVIHWVKQKPGQGLEWIGYIQPYIDGTKYNEKFKGKATLTVDKSSSTAFMELSSLTSEDSAVYYCARSGYGGYGLAWLAYWGQGTLVTVSA VL: QAVVIQESALTTSPGETVTLTCRSSTGAVTTSQYANWVQEKPDHLFTGLIGGSNNRAPGVPARFSGSLIGDKAALTITGAQTEDEAIYFCALVYSNNWVFGGGTKLTVLG

>  <RESULT UNITS>
M⁻¹ s⁻¹

>  <kon>
79900

$$$$
>  <BINDER>
Mutation 1-21 (antibody, V domains shown, Built as m8) VH: EVQLQQSGPELVKPGASVKMSCKASGYTFTLYVVHWVKQKPGQGLEWIGYIYPYIDGTKYNEKFKGKATLTVDKSSSTAFMELSSLTSEDSAVYYCARSGYGQYGLAWLAYWGQGTLVTVSA VL: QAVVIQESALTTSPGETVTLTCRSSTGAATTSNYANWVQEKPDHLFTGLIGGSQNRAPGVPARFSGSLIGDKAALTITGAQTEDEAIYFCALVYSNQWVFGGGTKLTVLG

>  <RESULT UNITS>
M⁻¹ s⁻¹

>  <kon>
38800

$$$$
>  <BINDER>
Mutation 1-19 (antibody, V domains shown, Built as m8) VH: EVQLQQSGPELVKPGASVKMSCKASGYTFTIYVLHWVKQKPGQGLEWIGYINPYLDGTKYNEKFKGKATLTVDKSSSTAFMELSSLTSEDSAVYYCARSGYGNYGLAWLAYWGQGTLVTVSA VL: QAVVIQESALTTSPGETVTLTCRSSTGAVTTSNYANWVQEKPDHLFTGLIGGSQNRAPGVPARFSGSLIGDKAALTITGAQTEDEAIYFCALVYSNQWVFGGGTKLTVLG

>  <RESULT UNITS>
M⁻¹ s⁻¹

>  <kon>
57000

$$$$
>  <BINDER>
Mutation 1-32 (antibody, V domains shown, Built as m8) VH: EVQLQQSGPELVKPGASVKMSCKASGYTFTIYVIHWVKQKPGQGLEWIGYINPYLDGTKYNEKFKGKATLTVDKSSSTAFMELSSLTSEDSAVYYCARSGYGGYGLAWLAYWGQGTLVTVSA VL: QAVVIQESALTTSPGETVTLTCRSSTGAATTSNYANWVQEKPDHLFTGLIGGSNNRAPGVPARFSGSLIGDKAALTITGAQTEDEAIYFCALVYSNHWVFGGGTKLTVLG

>  <RESULT UNITS>
M⁻¹ s⁻¹

>  <kon>
69300

$$$$

Could you now consider this next binder?
// Input: Mutation 1-18 (antibody, V domains shown, Built as m8) VH: EVQLQQSGPELVKPGASVKMSCKASGYTFTIYVVHWVKQKPGQGLEWIGYINPYLDGTKYNEKFKGKATLTVDKSSSTAFMELSSLTSEDSAVYYCARSGYGQYGLAWLAYWGQGTLVTVSA VL: QAVVIQESALTTSPGETVTLTCRSSTGAVTTSQYANWVQEKPDHLFTGLIGGSNNRAPGVPARFSGSLIGDKAALTITGAQTEDEAIYFCALVYSNHWVFGGGTKLTVLG . Output its kon only.
63000
